# Assay Procedure: Volume of distribution in rat at 1 mg/kg, iv and 1 mg/kg, po
# Assay type: ADME, organism-based
# Conditions: in vivo
Measured Endpoint: Vd (L/kg)
// note: answer is a bare numeric in L/kg

Q: Which value of Vd has been reported for FC(F)(F)c1ccc(Nc2ccnc3nc(-c4ncccc4C(F)(F)F)ccc23)nc1 in the records?
A: 3.9

====

# Assay Procedure: Solubility in 0.1 N HCL after 4 hrs by HPLC/MS analysis
# Format: physicochemical
So basically: solubility at 4 h at 20 µg/mL or higher? That is satisfied. Lower than 20 µg/mL? That is not satisfied.

Here's what some known entries look like.
FC(F)(F)c1ccc(Nc2ccnc3cc(-c4ncccc4C(F)(F)F)ccc23)nc1 :: satisfied
FC(F)(F)c1ccc(Nc2ncnc3cc(-c4ncccc4C(F)(F)F)ccc23)cc1 :: not satisfied
FC(F)(F)c1ccc(Nc2ncnc3cc(-c4ncccc4C(F)(F)F)cnc23)cc1 :: not satisfied

Q: Could you verify whether the entry FC(F)(F)c1ccc(Nc2ncnc3nc(-c4ncccc4C(F)(F)F)ncc23)cc1 shows solubility at 4 h of no less than 20 µg/mL?
A: not satisfied

Q: Could you verify whether the entry Cl.FC(F)(F)c1ccc(Nc2ncnc3cc(-c4ncccc4C(F)(F)F)ccc23)cn1 shows solubility at 4 h of no less than 20 µg/mL?
A: satisfied

Q: Could you verify whether the entry FC(F)(F)c1ccc(Nc2ccnc3nc(-c4ncccc4C(F)(F)F)cnc23)nc1 shows solubility at 4 h of no less than 20 µg/mL?
A: not satisfied

Q: Could you verify whether the entry FC(F)(F)c1ccc(Nc2ccnc3nc(-c4ncccc4C(F)(F)F)ccc23)cc1 shows solubility at 4 h of no less than 20 µg/mL?
A: satisfied

Q: Could you verify whether the entry FC(F)(F)c1ccc(Nc2ncnc3nc(-c4ncccc4C(F)(F)F)ccc23)cc1 shows solubility at 4 h of no less than 20 µg/mL?
A: not satisfied

Q: Could you verify whether the entry FC(F)(F)c1ccc(Nc2ccnc3nc(-c4ncccc4C(F)(F)F)ccc23)nc1 shows solubility at 4 h of no less than 20 µg/mL?
A: satisfied

Q: Could you verify whether the entry FC(F)(F)c1ccc(Nc2ncnc3cc(-c4ncccc4C(F)(F)F)ccc23)nc1 shows solubility at 4 h of no less than 20 µg/mL?
A: satisfied

Q: Could you verify whether the entry FC(F)(F)c1ccc(Nc2ccnc3cc(-c4ncccc4C(F)(F)F)cnc23)nc1 shows solubility at 4 h of no less than 20 µg/mL?
A: satisfied

Q: Could you verify whether the entry FC(F)(F)c1ccc(Nc2nccc3nc(-c4ncccc4C(F)(F)F)cnc23)nc1 shows solubility at 4 h of no less than 20 µg/mL?
A: not satisfied

Q: Could you verify whether the entry FC(F)(F)c1ccc(Nc2ncnc3nc(-c4ncccc4C(F)(F)F)cnc23)cc1 shows solubility at 4 h of no less than 20 µg/mL?
A: not satisfied
